Test: Systemic availability of mexiletine in the cynomolgus monkey from mexiletine prodrugs (oral gavage)
Format: in vivo
Settings: 1 mg/kg mexiletine free base, plasma mexiletine

- Molecule: "Cc1cccc(C)c1OCC(C)NC(=O)[C@@H](N)C[S+](C)[O-].O=C(O)C(F)(F)F (stereo partly drawn) [Mexiletine [(R)-S-methyl-cysteine]"
  AUC of mexiletine, ng·h/mL: 432
- Molecule: "Cc1cccc(C)c1OCC(C)NC(=O)C(N)CCC(=O)O.Cl (mixture of isomers) [Mexiletine glutamic acid amide]"
  AUC of mexiletine, ng·h/mL: 604
- Molecule: "Cc1cccc(C)c1OCC(C)NC(=O)[C@@H](N)CCC(N)=O.Cl (stereo partly drawn) [Mexiletine glutamine amide]"
  AUC of mexiletine, ng·h/mL: 649
- Molecule: "Cc1cccc(C)c1OCC(C)NC(=O)C(N)CN (stereo not drawn)"
  AUC of mexiletine, ng·h/mL: 801
- Molecule: "Cc1cccc(C)c1OCC(C)NC(=O)[C@@H](N)CCCCN=C(N)N.Cl.Cl (stereo partly drawn) [Mexiletine homo arginine amide]"
  AUC of mexiletine, ng·h/mL: 424
- Molecule: "CC(=O)N[C@@H](CCCCN)C(=O)NC(C)COc1c(C)cccc1C.Cl (stereo partly drawn) [Mexiletine [(S)-N^α-acetyl-lysine] amide]"
  AUC of mexiletine, ng·h/mL: 363

====

Assay: Systemic availability of mexiletine in the dog from mexiletine prodrugs (oral gavage)
Type: in vivo
Conditions: 1 mg/kg mexiletine free base, plasma mexiletine

- Compound: "Cc1cccc(C)c1OCC(C)NC(=O)C(N)CCC(=O)O.Cl (mixture of isomers) [Mexiletine glutamic acid amide]"
  Cmax of mexiletine, ng/mL: 104
- Compound: "Cc1cccc(C)c1OCC(C)NC(=O)[C@@H](N)C(C)(C)O (stereo partly drawn) [Mexiletine [^α-hydroxy-(5)-valine] amide, Mexiletine [β-hydroxy-(S)-valine] amide]"
  Cmax of mexiletine, ng/mL: 1.68
- Compound: "Cc1cccc(C)c1OCC(C)NC(=O)[C@@H](N)C[S+](C)[O-].O=C(O)C(F)(F)F (stereo partly drawn) [Mexiletine [(R)-S-methyl-cysteine]"
  Cmax of mexiletine, ng/mL: 59.9
- Compound: "Cc1cccc(C)c1OCC(C)NC(=O)[C@@H](N)CCCCN=C(N)N.Cl.Cl (some centres unmarked) [Mexiletine homo arginine amide]"
  Cmax of mexiletine, ng/mL: 86.9
- Compound: "Cc1cccc(C)c1OCC(C)NC(=O)C(N)CN (centres unmarked)"
  Cmax of mexiletine, ng/mL: 103
- Compound: "Cc1cccc(C)c1OCC(C)NC(=O)C(N)C1CC1 (centres unmarked) [Mexiletine cyclopropyl glycine amide]"
  Cmax of mexiletine, ng/mL: 0.703
- Compound: "CC(=O)N[C@@H](CCCCN)C(=O)NC(C)COc1c(C)cccc1C.Cl (stereo partly drawn) [Mexiletine [(S)-N^α-acetyl-lysine] amide]"
  Cmax of mexiletine, ng/mL: 90.8
- Compound: "Cc1cccc(C)c1OCC(C)NC(=O)[C@@H](N)CCC(N)=O.Cl (some centres unmarked) [Mexiletine glutamine amide]"
  Cmax of mexiletine, ng/mL: 117

====

System: rabbit stomach smooth muscle
Test: Electrical field stimulated contractions of isolated rabbit stomach smooth muscle
Format: cell-based
Conditions: Oryctolagus cuniculus; rabbit stomach antrum strips, EFS 14 Hz; read-out: ED50 for attenuation of EFS induced contractions

- Molecule: "Cc1cccc(C)c1OCC(C)NC(=O)CN.O=C(O)C(F)(F)F (racemic) [Mexiletine glycine amide]"
  EC50 / µM: 9.16

====

# key: entry, value: Simulated gastric fluid (pH 1.1): % remaining after 2 h/37° C.
Assay: In vitro stability of mexiletine prodrugs under conditions prevailing in the gut
Assay type: physicochemical
Details: simulated gastric fluid pH 1.1, 2 h, HPLC
Structures can show the parent of a compound that is named as a salt.
Reported property: Simulated gastric fluid (pH 1.1): % remaining after 2 h/37° C. (%)

- Molecule: "Cc1cccc(C)c1OCC(C)NC(=O)[C@@H](N)CC[S+](C)C (some centres unmarked) [Mexiletine S-methyl-methionine chloride, Hydrochloride]"
  Endpoint value: 99.2
- Molecule: "Cc1cccc(C)c1OCC(C)NC(=O)[C@@H](N)CCCN (some centres unmarked) [Mexiletine ornithine amide, Di-hydrochloride]"
  Endpoint value: 99.7
- Molecule: "Cc1cccc(C)c1OCC(C)NC(=O)C(N)CCCNC(=N)N(C)C.Cl.Cl (mixture of isomers)"
  Endpoint value: 99.7
- Molecule: "Cc1cccc(C)c1OCC(C)NC(=O)C(N)CCC(=O)O.Cl (mixture of isomers) [Mexiletine glutamic acid amide]"
  Endpoint value: 100
- Molecule: "CNC(=N)NCCC[C@H](N)C(=O)NC(C)COc1c(C)cccc1C (stereo partly drawn) [Mexiletine (S)-N-methylarginine amide, Dihydrochloride]"
  Endpoint value: 99.8
- Molecule: "Cc1cccc(C)c1OCC(C)NC(=O)[C@@H](N)CC(=O)O (stereo partly drawn) [Mexiletine-(S)-aspartic acid amide, Hydrochloride]"
  Endpoint value: 99.2
- Molecule: "Cc1cccc(C)c1OCC(C)NC(=O)[C@@H](N)C(C)C.Cl (some centres unmarked) [Mexiletine valine amide]"
  Endpoint value: 98.7
- Molecule: "Cc1cccc(C)c1OCC(C)NC(=O)CN.O=C(O)C(F)(F)F (racemic) [Mexiletine glycine amide]"
  Endpoint value: 99.8

====

# key: entry, value: T50% Cmax
Assay: Systemic availability of mexiletine in the cynomolgus monkey from mexiletine prodrugs (oral gavage)
Format: in vivo
Details: 1 mg/kg mexiletine free base, plasma mexiletine

- Molecule: "Cc1cccc(C)c1OCC(C)NC(=O)[C@@H](N)CCC(N)=O.Cl (stereo partly drawn) [Mexiletine glutamine amide]"
  Unit of measure: "h"
  T50% Cmax: 4.0
- Molecule: "Cc1cccc(C)c1OCC(C)NC(=O)[C@@H](N)C[S+](C)[O-].O=C(O)C(F)(F)F (stereo partly drawn) [Mexiletine [(R)-S-methyl-cysteine]"
  Unit of measure: "h"
  T50% Cmax: 4.80
- Molecule: "Cc1cccc(C)c1OCC(C)NC(=O)C(N)CN (stereo not drawn)"
  Unit of measure: "h"
  T50% Cmax: 7.88
- Molecule: "Cc1cccc(C)c1OCC(C)NC(=O)[C@@H](N)CCCCN=C(N)N.Cl.Cl (stereo partly drawn) [Mexiletine homo arginine amide]"
  Unit of measure: "h"
  T50% Cmax: 5.13
- Molecule: "CC(=O)N[C@@H](CCCCN)C(=O)NC(C)COc1c(C)cccc1C.Cl (stereo partly drawn) [Mexiletine [(S)-N^α-acetyl-lysine] amide]"
  Unit of measure: "h"
  T50% Cmax: 8.98

====

Experiment: In vitro stability of mexiletine prodrugs under conditions prevailing in the gut
Type: physicochemical
Conditions: simulated intestinal fluid pH 6.8, 2 h, HPLC
Structures can show the parent of a compound that is named as a salt.
# key: entry, value: Simulated intestinal fluid (pH 6.8): % remaining after 2 h/37° C.
Reported property: Simulated intestinal fluid (pH 6.8): % remaining after 2 h/37° C. (%)

- Molecule: "Cc1cccc(C)c1OCC(C)NC(=O)C(N)CCCNC(=N)N(C)C.Cl.Cl (mixture of isomers)"
  Unit of measure: "%"
  Endpoint value: 96.8
- Molecule: "Cc1cccc(C)c1OCC(C)NC(=O)C(N)CCC(=O)O.Cl (mixture of isomers) [Mexiletine glutamic acid amide]"
  Unit of measure: "%"
  Endpoint value: 98.3
- Molecule: "Cc1cccc(C)c1OCC(C)NC(=O)[C@@H](N)CC[S+](C)C (some centres unmarked) [Mexiletine S-methyl-methionine chloride, Hydrochloride]"
  Unit of measure: "%"
  Endpoint value: 99.4
- Molecule: "Cc1cccc(C)c1OCC(C)NC(=O)CN.O=C(O)C(F)(F)F (racemic) [Mexiletine glycine amide]"
  Unit of measure: "%"
  Endpoint value: 99.8
- Molecule: "CNC(=N)NCCC[C@H](N)C(=O)NC(C)COc1c(C)cccc1C (stereo partly drawn) [Mexiletine (S)-N-methylarginine amide, Dihydrochloride]"
  Unit of measure: "%"
  Endpoint value: 93.6
- Molecule: "Cc1cccc(C)c1OCC(C)NC(=O)[C@@H](N)CCCN (some centres unmarked) [Mexiletine ornithine amide, Di-hydrochloride]"
  Unit of measure: "%"
  Endpoint value: 99.8
- Molecule: "Cc1cccc(C)c1OCC(C)NC(=O)[C@@H](N)CC(=O)O (stereo partly drawn) [Mexiletine-(S)-aspartic acid amide, Hydrochloride]"
  Unit of measure: "%"
  Endpoint value: 99.9
- Molecule: "Cc1cccc(C)c1OCC(C)NC(=O)[C@@H](N)C(C)C.Cl (some centres unmarked) [Mexiletine valine amide]"
  Unit of measure: "%"
  Endpoint value: 98.3

====

Assay: Systemic availability of mexiletine in the dog from mexiletine prodrugs (oral gavage)
Type: in vivo
Conditions: 1 mg/kg mexiletine free base, plasma mexiletine
Marks after values point to notes of the source that are not given here.
Reported property: AUC of mexiletine

- Compound: "Cc1cccc(C)c1OCC(C)NC(=O)[C@@H](N)CCC(N)=O.Cl (stereo partly shown) [Mexiletine glutamine amide]"
  Reported property: "AUC of mexiletine"
  Endpoint value: "790 ng·h/mL"
- Compound: "Cc1cccc(C)c1OCC(C)NC(=O)[C@@H](N)CCCCN=C(N)N.Cl.Cl (stereo partly shown) [Mexiletine homo arginine amide]"
  Reported property: "AUC of mexiletine"
  Endpoint value: "563 ng·h/mL"
- Compound: "Cc1cccc(C)c1OCC(C)NC(=O)[C@@H](N)C[S+](C)[O-].O=C(O)C(F)(F)F (stereo partly drawn) [Mexiletine [(R)-S-methyl-cysteine]"
  Reported property: "AUC of mexiletine"
  Endpoint value: "144 ng·h/mL"
- Compound: "CC(=O)N[C@@H](CCCCN)C(=O)NC(C)COc1c(C)cccc1C.Cl (stereo partly drawn) [Mexiletine [(S)-N^α-acetyl-lysine] amide]"
  Reported property: "AUC of mexiletine"
  Endpoint value: "893 ng·h/mL"
- Compound: "Cc1cccc(C)c1OCC(C)NC(=O)[C@@H](N)CCCCN.O=C(O)C(F)(F)F.O=C(O)C(F)(F)F (mixture of isomers) [Mexiletine (S)-lysine amide]"
  Reported property: "AUC of mexiletine"
  Endpoint value: "301** ng · h/mL"
- Compound: "Cc1cccc(C)c1OCC(C)NC(=O)C(N)CN (stereo not shown)"
  Reported property: "AUC of mexiletine"
  Endpoint value: "8371 ng·h/mL"
- Compound: "Cc1cccc(C)c1OCC(C)NC(=O)C(N)CCC(=O)O.Cl (mixture of isomers) [Mexiletine glutamic acid amide]"
  Reported property: "AUC of mexiletine"
  Endpoint value: "1020 ng·h/mL"
